- measurement.protocol: yeast display, Sf9 membrane polyspecificity reagent, FACS + sequencing; frameworks hold sequencing errors
property: polyreactivity (PSR sort gate)

{"sequence.code": "QVQLVESGGGLVQAGGSLRLSCAASGSTFFGNTMGWYRKAPGKERELVATITRRGGSTYYADSVKGRFTISRDNAKNTVYLQMNSLKPEDTAVYYCAKRGPYTKYDYWGQGTQVTVSS", "result": "low polyreactivity"}
{"sequence.code": "QVQVVESGGGLVQAGASLRLSCAASGRTCLHKAMGWYRQAPGKERELVAAIDSRGTTHYADSVKGRFTISRDNAKNTVYLQMNSLKPEDTAVYYCAARPTRGHWWYAYWGQGTQVTVSS", "result": "low polyreactivity"}
{"sequence.code": "QVQLVESGGGLVQAGGSLRLSCAASGSIFETYVMGWYRQAPGKERELVAAINSGGSTNYADSVKGRFTISRDNAKNTVYLQMNSLKPEDTAVYYCAAEWRGDRYRLYVVSWWYDYWGQGTQVTVSS", "result": "low polyreactivity"}

* * *

- measurement.protocol: yeast display, Sf9 membrane polyspecificity reagent, FACS + sequencing; frameworks hold sequencing errors
property: polyreactivity (PSR sort gate)

Worked cases, answers included:
{"sequence.code": "QEQLQESGSGLVQAGVSLRLSSAASGNIVQDWVMGWYRQAPGKERELVAAISPGAITYYADSVKGRFTISSDNAKNTVYLQTNRLNPEDTAVYYCAAYYIVEFLHGYWGQGTRVTVSS", "polyreactivity (PSR sort gate)": "low polyreactivity"}
{"sequence.code": "QVQLVESAGGLVQAGGSLRLICAASGFTSNVYTMGWYRQAPGKERELVAAITSGGSTNYADSVKGRFTISRDNAKNTVYLQMNSLKPEDTAVYYCNTDVKEYFHHEGYPLRWEYDYWGQGTQVTVSS", "polyreactivity (PSR sort gate)": "low polyreactivity"}
{"sequence.code": "QVQLVESGGGLVQAGGSLRLSCAASGYTFVIYAMGWYRQAPGKERELVAAITTIGGRTYYADSVKGRFTISRDNAKNTVYLQMNSLKPEDTAVYYCAADIRSNRLYDGGYWGQGTQVTVSS", "polyreactivity (PSR sort gate)": "low polyreactivity"}
{"sequence.code": "QVQLVESGGGLVQAGGSLRLSCAASGITFAFYDMGWYRQAPGKERELVAAISYSGGGTYYADSVKGRFTISRDNAKNTVYLQMNSLKPEDTAVYYCAADPKTHPLFGEDYWGQGTQVTVSS", "polyreactivity (PSR sort gate)": "low polyreactivity"}
{"sequence.code": "QVQLVESGGGLVQAGGSLRLSCAASGRTFSWYVMGLYRQAPGKERELVASISGSGGSTYYADSVKGRFTISRDNAKNTVYLQMNSLKPEDTAVYYCARDYFFRSRSDYWGQGTQVTVSS", "polyreactivity (PSR sort gate)": "high polyreactivity"}

Would you mind telling me what polyreactivity (PSR sort gate) value was observed for QVQLVESGGGLVQAGGSLRLSCAASGFTFTPNAMGRYRQAPGKERELVAVISYSGGSTYYADSVKGRFTISRDNAKNTVYLQMNSLKPEDTAVYYCAKRTYSSKYFGFEYWGQGTQVTVSS ?
high polyreactivity

One more sequence: QVHVVESGGGLVQAGGSLRLSCAASGFTFAKYAMGWYRQAPGKERELVAVITSSGGRTYYADSVKGRFTISRDNAKNTVYLQMNSLKPEDTAVYYCNAGKYVYATSQYDYWGQGTQVTVSS
high polyreactivity

One more sequence: QVQLVESGGGLVQAGGSLRLSCAASGSTFDGYAMGWYRQAPGKERELVAAISSSGAYTYYADSVKGRFTISRDIAKNTVFLQMNSLKPEDTAVYYCNRVTYQQKNDYCGQGTQVTVSS
high polyreactivity

One more sequence: QVQLVESGGGLVQAGGSLSLSCAASGFTFGTYTMGWYRQAPRKEREFVAAISFSGTTTYYADSVKGRFTISRDNAKNTVYLQMNSLKPEDTAVYYCATRSPRKGVKGHFRYYYWGQGTQVTVSS
high polyreactivity

One more sequence: QVQLVESGGGLVQAGGSLRLSCAASGSIFVTNAMGWYRQAPGKERELVAAISWRGGSTYYADSVKGRFTISRDNAKNTVYLQMNSLKPEDTAVYYCNTYHPYWGSGFDYWGQGTQVTVSS
low polyreactivity

One more sequence: QVQLVESGGGLVQAGGSLRLSCAASGFTFYYYAMGWYRQAPGKERELVAGINSDGNTYYADSVKGRFTISRDNAKNTVYLQMNSLKPEDTAVYYCAARKLWPKNFVRHDYWGQGTQVTVSS
low polyreactivity

* * *

- measurement.protocol: yeast display, Sf9 membrane polyspecificity reagent, FACS + sequencing; frameworks hold sequencing errors
property: polyreactivity (PSR sort gate)

Worked cases, answers included:
{"sequence.code": "QVQLVESGGGLVQAGGSLRLSCAASGSIFSWYAMGSYTQAPGKESELVAAITRGGSTYADSVKGRFTISRDNAKNTVYLQMNSLKPEDTAVYYCNAVYGVYDFNYWGQGTQVTVSS", "result": "low polyreactivity"}
{"sequence.code": "QVQLVESGGGLVQAGGSLRLSCAASGRIVVGYAMGWYRQAPGKERELVAAINRSGSSTYYADSVKGRFTISRDNAKNTVYLQMNSLKPEDTAVYYCNARSGNRYGPRYDYWGQGTQVTVSS", "result": "high polyreactivity"}
{"sequence.code": "QVQLVESGGGLVQAGGTLRFSCAATGSIFDPYARGWYRQAPGKEREFVAAITYTGGDTHYADSVKGRFSISRDKAKNTVYLQLNSLKPEDSAVYYFAAVYYRGIQSYDYWGQGTQVTVSS", "result": "low polyreactivity"}
{"sequence.code": "QVQLVESGGGLVQAGGSLRLSCAASGFTFRTYAMGWYRQAPGKERELVADISGSGGSTYYADSVKGRFTISRDNAKNTVYLQMISLKPEDTAVYYCAATIYNWGYEREYWGQGTQVTVSS", "result": "high polyreactivity"}

We next turn to a different sequence, shown below.
Would you mind telling me what polyreactivity (PSR sort gate) value was observed for QVQLVESGGGLVQAGGSLRLSCAASGSIFDSYAMGWSRQAPGKERELVAAISSGGSTNYADSVKGRFTISRDNEKNTVILQMYSLKTEDTAVYFCAADGSLDAYNYWGQGTQVSVSS ?
low polyreactivity

* * *

- measurement.protocol: yeast display, Sf9 membrane polyspecificity reagent, FACS + sequencing; frameworks hold sequencing errors
property: polyreactivity (PSR sort gate)

Worked cases, answers included:
{"sequence.code": "QVQLVESGGGLVQAGGSLRLSCAASGSSFWSNAMGWYRQAPGKEREFVAAINWSGDNTYYADSVKGRFTISRDNSKNKVYLKLISLKPEDTAVYYCIGVGDYPKYSGGFDYCGQGTQVTVSS", "polyreactivity (PSR sort gate)": "low polyreactivity"}
{"sequence.code": "QVHLVESGGGLVQAGGSLRLSCAASGFTFDYYTMGWYRPAPGKERELVAAITSSAGSTDYADSVKGRFTISRDNAKNTVYLQMNSLKPEDTAVYYCNADFLYGTYDYWGQGTQVTVSS", "polyreactivity (PSR sort gate)": "low polyreactivity"}
{"sequence.code": "QVQLVESGGGLVQAGGSLRLSCAASGSIFYSNAMGWYRQAPGKERELVAAITWSGGSTYYADSVKGRFTISRDNAKNTVYLQMNSLKPEDTAVYYCNARRNVRQTFGYEYWGQGTQVTVSS", "polyreactivity (PSR sort gate)": "high polyreactivity"}
{"sequence.code": "QVQLVESGGGLVQAGGSLRLSCAASGSTFNGNDMGWYRQAPGKERELVATISDGGRTYYADSVKGRFTISRDNAKNTVYLQRNSLKPEDTAVYYCAAPVYVPRAWFYYWGQGTQVTVSS", "polyreactivity (PSR sort gate)": "low polyreactivity"}
{"sequence.code": "QVQLVESGGALVQAAGSLRLICAASVIISGCNGMGWYRQAPGKERELVASISDSGSSTYYADSVKGRFTISRDNAKNTVYLQMNSLKPEDTAVYYCATDLLASRYGYWGQGTQVTVSS", "polyreactivity (PSR sort gate)": "low polyreactivity"}
{"sequence.code": "QVQLVESGGGLVQAGGSLRLSCAASGRIFSGYAMGWYRQAPGKERELVAVITSTGGSTYYADSVKGRFTISRDNAKNTVYLQMNSLKPEDTAVYYCATRGVRRYYKTMNYWGQGTQVTVSS", "polyreactivity (PSR sort gate)": "high polyreactivity"}

Would you mind telling me what polyreactivity (PSR sort gate) value was observed for QVQLVESGGGLVQAGGSLRLSCAASGSTIINYAMGWYRQAPGKERELVAVITSDDGSTYYADSVKGRFTISRDNAKNTVYLQMNSLKPEDTAVYYCAADYYDQRYRPGPWYDYWGQGSQVTVSS ?
low polyreactivity

One more sequence: QVQVVESGGGLVQAGGSLRLSCAASGRIFAKYAMGWYIQAPGKERELVAAIDLSDGSTSYADSVKGRFTISRDNAKNTVYLQMNSLKPEDTAVYYCAKTWANVYAGAHDYWGQGTQVTVSS
low polyreactivity

One more sequence: QVQLVESGGRLVQAGGSLRLSCAASGFIFEDYAMGWYRQAPGKERELVAAITWRGGSTYYADSVKGRFTISRDHAKTTVYLQMNSLKPEDTAVYYCAAEDYWGWRDYWGQGTQVTVSS
high polyreactivity

One more sequence: QVQLVESGGGLVQAGGSLRLSCAASGFTFIRNAMGWYRQAPGKDRELVAAISRSGGSTYYADSVKGRFTISRDNAKYTVYLQMNSLKPEDTAVYYCPVTLYLKWQGGAYDYWGQGTQVTVSS
low polyreactivity

One more sequence: QVQLVESGGGLVQAGGSLRLSCAASGSTFSVNAMGWYRQAPGKEREMVAAISSTGSTKYADSVKGRFTISRDNAKNTVYLQMNSLKPEDTAVYCAASNADYEYDPFSVWYFSPYDYWGQGTQVTVSS
low polyreactivity
